Overview of recorded Kd for various binders
target: T1, human TSLP (human, UniProt Q969D9 29-159); experiment: SPR
T1 construct: also called hTSLP; rhTSLP
A number alone suffices; assume nM.

Examples with their reported Kd follow.
binder	Kd (nM)
BDG38.106 (antibody, V domains shown, IgG1) VH: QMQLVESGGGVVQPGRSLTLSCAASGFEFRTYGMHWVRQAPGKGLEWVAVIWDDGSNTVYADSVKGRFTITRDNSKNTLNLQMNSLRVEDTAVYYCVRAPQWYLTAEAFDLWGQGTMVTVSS VL: SYILTQPPSVSVAPGQTATITCGGNLIGSRLVHWYQQKPGQAPVLVIYDDSDRPSRIPERFSGSNIGNTATLTIEDVEEGDEADYYCQVWDHYSDHMVFGGGTKLTVL	0.0525
BDG38.091 (antibody, V domains shown, IgG1) VH: QMQLVESGGGVVQPGRSLTLSCAASGFEFRTYGMHWVRQAPGKGLEWLGVIWYDGSNTHYADSVKGRFTITRDNSKNTLNLQMNSLRVEDTAVYYCVRAPQWYLTAEAFDLWGQGTMVTVSS VL: SYILTQPPSVSVAPGETATITCGGNLIGSRLVHWYQQKPGQAPVLVIYDDSDRPSRIPERFSGSNIGNTATLTISDVEAGDEADYYCQVWDHYSNHYVFGGGTKLTVL	0.0621

Attention now shifts to the item below.
Query string: # get_value(readout='Kd', item= BDG38.098 (antibody, V domains shown, IgG1) VH: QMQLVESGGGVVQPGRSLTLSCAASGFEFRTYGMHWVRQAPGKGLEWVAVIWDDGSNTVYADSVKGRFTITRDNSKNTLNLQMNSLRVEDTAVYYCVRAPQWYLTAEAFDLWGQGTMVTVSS VL: SYVLTQPPSVSVAPGQTATITCGGNLIGARLVHWYQQKPGQAPVLVIYDDSDRPSRIPERFSGSNIGNTATLTISRVEAGDEADYYCQVWDYSSDSMVFGGGTKLTVL )
Result string: 0.0275

These data points were gathered from patent US20240059769A1.
